The values you see were collected from patent US20130109682A1.

# SUBJECT_OF_TEST: cABLT315 kinase (Homo sapiens, UniProt P00519)
# PROCEDURE_TEXT: cABLT315 kinase Caliper assay
# Assay type: biochemical
# MEASUREMENT_SETUP: Caliper assay
pIC50: −log10 of the molar value.
For each entry below, report its pIC50 value.

Request: Dear colleague, I am looking for the recorded pIC50 of the following compound: N[C@H]1C[C@@H](c2ccncc2NC(=O)c2csc(-c3c(F)cccc3F)n2)O[C@H]2CCC[C@H]21 [Example 230]
Result: < 5.00

Request: Dear colleague, I am looking for the recorded pIC50 of the following compound: COc1cc(F)c(-c2nc(C(=O)Nc3cnccc3[C@H]3C[C@@H](N)[C@](C)(O)[C@@H](C)O3)ccc2F)c(F)c1 [Example 242]
Result: < 5.00

Request: Dear colleague, I am looking for the recorded pIC50 of the following compound: CC1(C)C[C@H](N)C[C@@H](c2ccncc2NC(=O)c2nc(-c3ccccc3)cnc2N)O1 [Example 297]
Result: 6.07

Request: Dear colleague, I am looking for the recorded pIC50 of the following compound: C[C@H]1O[C@@H](c2ccncc2NC(=O)c2ccc(F)c(-c3c(F)cccc3F)n2)C[C@@H](N)[C@]1(C)O [Example 219]
Result: < 5.00

Request: Dear colleague, I am looking for the recorded pIC50 of the following compound: Nc1cc(F)c(-c2c(F)cccc2F)nc1C(=O)Nc1cnccc1[C@H]1C[C@@H](N)[C@@]2(O)CCCC[C@H]2O1 [Example 238]
Result: < 5.00

###

# SUBJECT_OF_TEST: GSK3β (Homo sapiens)
# Sequence (P49841 whole entry, species assumed): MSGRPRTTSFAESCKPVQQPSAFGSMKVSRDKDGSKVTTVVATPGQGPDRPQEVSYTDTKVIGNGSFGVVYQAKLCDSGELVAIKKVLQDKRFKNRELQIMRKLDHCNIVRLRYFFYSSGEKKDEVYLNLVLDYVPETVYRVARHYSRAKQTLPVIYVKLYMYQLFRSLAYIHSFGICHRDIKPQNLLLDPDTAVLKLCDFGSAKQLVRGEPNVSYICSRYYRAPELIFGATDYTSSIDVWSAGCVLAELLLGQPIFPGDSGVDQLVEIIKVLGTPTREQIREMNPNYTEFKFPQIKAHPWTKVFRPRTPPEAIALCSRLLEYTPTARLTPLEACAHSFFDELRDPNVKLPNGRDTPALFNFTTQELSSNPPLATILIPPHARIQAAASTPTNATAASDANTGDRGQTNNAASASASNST
# PROCEDURE_TEXT: GSK3β ATP depletion assay
# Format: biochemical
# MEASUREMENT_SETUP: ATP depletion assay; read-out: GSK3b IC50
For each entry below, report its IC50 value.
Respond numerically; units are µM and should not be typed.

Request: Dear colleague, I am looking for the recorded IC50 of the following compound: C[C@]1(O)[C@H](N)C[C@H](c2ccncc2NC(=O)c2ccc(F)c(-c3c(F)cccc3F)n2)O[C@@H]1C1CC1
Result: 4.62

Request: Dear colleague, I am looking for the recorded IC50 of the following compound: CC(C)(C)[C@H]1O[C@@H](c2ccncc2NC(=O)c2ccc(F)c(-c3c(F)cccc3F)n2)C[C@H](N)[C@@H]1O
Result: 9.7

Request: Dear colleague, I am looking for the recorded IC50 of the following compound: CC(C)(C)[C@H]1O[C@@H](c2ccncc2NC(=O)c2ccc(F)c(-c3c(F)cc(S(C)(=O)=O)cc3F)n2)C[C@@H](N)[C@@H]1O
Result: 2.25

###

# SUBJECT_OF_TEST: GSK3β (Homo sapiens)
# PROCEDURE_TEXT: GSK3β ATP depletion assay
# Type: biochemical
# MEASUREMENT_SETUP: read-out: GSK3b IC50
PROPERTY_MEASURED: IC50

Request: Dear colleague, I am looking for the recorded IC50 of the following molecule: NC(=O)C[C@H]1O[C@@H](c2ccncc2NC(=O)c2ccc(F)c(-c3c(F)cccc3F)n2)C[C@@H](O)[C@@H]1O
Result: > 25000 nM

Request: Dear colleague, I am looking for the recorded IC50 of the following molecule: O=C(Nc1cnccc1[C@H]1OCC[C@@H](CO)O1)c1csc(-c2c(F)cccc2F)n1
Result: 2000 nM

Request: Dear colleague, I am looking for the recorded IC50 of the following molecule: C[C@@H]1O[C@H](c2ccncc2NC(=O)c2ccc(F)c(-c3c(F)cccc3F)n2)[C@@H](O)[C@H](O)[C@@]1(C)O (stereo in doubt)
Result: 1170 nM

Request: Dear colleague, I am looking for the recorded IC50 of the following molecule: O=C(Nc1cnccc1[C@@]1(C(F)(F)F)C[C@@H](O)CCO1)c1ccc(F)c(-c2c(F)cccc2F)n1
Result: 3120 nM
